tested on: Escherichia coli; assay: Antimicrobial activity against beta lactamase CTX-M-10 producing Escherichia coli MI1443 by broth microdilution
assay metric: MIC

CO/N=C(\C(=O)N[C@@H]1C(=O)N2C(C(=O)O)=C(COC(N)=O)CS[C@H]12)c1ccco1 [CEFUROXIME] : ≥ 256 µg/mL

Provide MIC for all items below, preserving their order.
1. CO/N=C(\C(=O)N[C@@H]1C(=O)N2C(C(=O)[O-])=C(C[N+]3(C)CCCC3)CS[C@H]12)c1csc(N)n1 [CEFEPIME]
2. CC(C)(O/N=C(\C(=O)N[C@@H]1C(=O)N2C(C(=O)[O-])=C(C[n+]3ccccc3)CS[C@H]12)c1csc(N)n1)C(=O)O [CEFTAZIDIME]
3. CO/N=C(\C(=O)N[C@@H]1C(=O)N2C(C(=O)O)=C(COC(C)=O)CS[C@H]12)c1csc(N)n1 [CEFOTAXIME]

Outgoing:
32 µg/mL
1 µg/mL
256 µg/mL
